assay: NCI Yeast Anticancer Drug Screen. Data for the rad50 strain (AID 155); conditions: S. cerevisiae rad50 strain growth inhibition; at 50.0 µM (retest, dose inferred, filed as 5.0); hits give high values
This is part of a sample that, as a whole, favours compounds with a hit. Of some 79,000 tested, about 15% had one in any assay.
Mark Criterion not met for growth inhibition values under 20%, and Criterion met for everything at or above.

Determine whether this molecule has growth inhibition no lower than 20%: O=C(CN1CCCCC1)CC(O)(C(F)(F)F)C(F)(F)F
Criterion met

Determine whether this molecule has growth inhibition no lower than 20%: O=C1c2ccccc2C(O)(c2ccccc2)N1c1ccc([N+](=O)[O-])cc1 (configuration not stated)
Criterion met

Determine whether this molecule has growth inhibition no lower than 20%: Clc1nc(Cl)c(Cc2ccccc2)c(Cl)n1
Criterion met

Determine whether this molecule has growth inhibition no lower than 20%: CCC(=O)/C(=C\c1ccccc1)C(=O)C(C)CN(C)C (configuration not stated)
Criterion met

Determine whether this molecule has growth inhibition no lower than 20%: NC(=O)C1(Br)C=[N+](Cc2ccccc2)CCC1 (configuration not stated)
Criterion not met

Determine whether this molecule has growth inhibition no lower than 20%: NCCCC(=O)NC(Cc1cnc[nH]1)C(=O)O (configuration not stated)
Criterion not met

Determine whether this molecule has growth inhibition no lower than 20%: Cc1ccc(S(=O)(=O)OCC(C)(C)C)cc1
Criterion not met
